Entries below carry reported MIC on Salmonella enterica subsp. enterica serovar Pullorum ATCC 7913.

compound	MIC, µM
CC[C@H](C)[C@H](NC(=O)[C@H](CCCN=C(N)N)NC(=O)[C@H](C)NC(=O)[C@H](C)N)C(=O)N[C@H](C(=O)N[C@@H](CC(C)C)C(=O)N[C@@H](CCCN=C(N)N)C(=O)N[C@@H](CCCN=C(N)N)C(=O)N[C@@H](CCCN=C(N)N)C(=O)N[C@@H](Cc1ccccc1)C(=O)N[C@@H](CCCN=C(N)N)C(N)=O)[C@@H](C)CC [AARIILRRRFR]	16
CC[C@H](C)[C@H](NC(=O)[C@H](CCCN=C(N)N)NC(=O)[C@H](C)NC(=O)[C@H](C)N)C(=O)N[C@H](C(=O)N[C@@H](CC(C)C)C(=O)N[C@@H](CCCN=C(N)N)C(=O)N[C@@H](C)C(=O)N[C@@H](CCCN=C(N)N)C(=O)N[C@@H](Cc1ccccc1)C(=O)N[C@@H](CCCN=C(N)N)C(N)=O)[C@@H](C)CC [AARIILRARFR]	4

----------
- Tested on: Escherichia coli ATCC 2592

mol.smiles	MIC
CC(C)C[C@H](NC(=O)[C@H](CCCCN)NC(=O)[C@H](CCCCN)NC(=O)[C@H](CC(C)C)NC(=O)[C@H](CC(C)C)NC(=O)[C@H](CCCCN)NC(=O)[C@H](CCCCN)NC(=O)[C@H](CC(C)C)NC(=O)[C@H](CC(C)C)NC(=O)[C@H](CCCCN)NC(=O)[C@H](CCCCN)NC(=O)[C@H](CC(C)C)NC(=O)[C@H](CC(C)C)NC(=O)[C@H](CCCCN)NC(=O)[C@H](CCCCN)NC(=O)[C@H](CC(C)C)NC(=O)[C@H](CC(C)C)NC(=O)[C@H](CCCCN)NC(=O)[C@H](CCCCN)NC(=O)[C@@H](N)CC(C)C)C(=O)O	≥ 36.2 µM

----------
Entries below carry reported MIC on Escherichia coli ATCC 25922.

molecule	target	units.symbol	MIC
CC[C@H](C)[C@H](NC(=O)[C@@H](N)Cc1ccccc1)C(=O)NCC(=O)N[C@H](C(=O)N[C@@H](CC(C)C)C(=O)N[C@H](C(=O)N1CCC[C@H]1C(=O)N[C@@H](CC(C)C)C(=O)N[C@@H](C)C(=O)N[C@@H](CC(C)C)C(=O)NCC(=O)N[C@@H](C)C(=O)N[C@@H](CC(C)C)C(=O)N[C@H](C(=O)N[C@@H](CCCCN)C(=O)N[C@@H](CC(C)C)C(=O)N[C@@H](Cc1ccccc1)C(=O)N[C@@H](CCCCN)C(N)=O)[C@@H](C)O)[C@@H](C)CC)[C@@H](C)O [FIGTLIPLALGALTKLFK]	Escherichia coli ATCC 25922	µM	16
CC(C)C[C@H](NC(=O)[C@H](Cc1ccccc1)NC(=O)[C@@H]1CCCN1C(=O)[C@H](Cc1c[nH]c2ccccc12)NC(=O)[C@H](Cc1c[nH]c2ccccc12)NC(=O)[C@H](Cc1c[nH]c2ccccc12)NC(=O)[C@H](C)NC(=O)[C@H](Cc1ccccc1)NC(=O)[C@H](CCCN=C(N)N)NC(=O)[C@H](CCCN=C(N)N)NC(=O)[C@@H](N)C(C)C)C(=O)N[C@@H](CCCN=C(N)N)C(=O)N[C@@H](CCCN=C(N)N)C(N)=O [VRRFAWWWPFLRR]	Escherichia coli ATCC 25922	µM	8
CC[C@H](C)[C@H](NC(=O)[C@H](CCCN=C(N)N)NC(=O)[C@H](CCCCN)NC(=O)[C@H](CC(C)C)NC(=O)[C@H](CC(C)C)NC(=O)CN)C(=O)N[C@@H](CCCCN)C(=O)N[C@@H](CO)C(=O)N[C@@H](CC(C)C)C(=O)N[C@@H](CC(C)C)C(N)=O [GLLKRIKSLL]	Escherichia coli ATCC 25922	µM	100
